Target: T1, mouse IL-17F (mouse, UniProt Q7TNI7 29-161)
T1 sequence (looked up): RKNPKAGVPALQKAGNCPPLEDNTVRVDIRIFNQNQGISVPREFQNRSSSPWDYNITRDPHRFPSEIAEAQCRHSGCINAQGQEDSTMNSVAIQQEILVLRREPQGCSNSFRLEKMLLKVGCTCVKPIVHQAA
Experiment: ELISA, coated IL-17F;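 also: binding ELISA on coated antigen from various species, with bound Nanobodies revealed by an HRP-linked anti-myc antibody and esTMB substrate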

BINDER: 13E05 (VHH, Class 4) VHH: EVQLVESGGGKVQAGDSLTLSCVASGGTFSNYAAWFRQAPGKDRRELVVSIFRTGSITYTADSVKGRFTASRVNTKNTVYLQMNSLKPEDTAVYYCASAYNPGVGYDYWGQGTQVTVSS
OD, OD: 0.0005
--
BINDER: 06E11 (VHH, Class 3) VHH: EVQLVESGGGLVQAGGSLRLSCPVSGRAFSRGRLGWFRQAPGKEREFVAVAHWSGAITSYADSVKGRFTFSRDNAKNTMNLQMNSLKPEDTAVYYCAADSETSGNWVYWGQGTQVTVSS
OD, OD: 0.0215
--
BINDER: 07B09 (VHH, Class 3) VHH: EVQLVESGGGLVQAGGSLRLSCGASGGTFSSYATGWFRQAPGKEREFVAVLRWSDGHTAYADSVKGRFTISRDGAKNTMYLQMSSLKPEDTAIYYCTTATRPGEWDYWGQGTQVTVSS
OD, OD: -0.0015
--
BINDER: 13E02 (VHH, Class 4; also called IL17MS13E02) VHH: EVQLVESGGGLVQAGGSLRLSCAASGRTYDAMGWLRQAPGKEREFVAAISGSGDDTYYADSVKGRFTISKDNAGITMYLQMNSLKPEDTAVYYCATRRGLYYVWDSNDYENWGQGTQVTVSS
OD, OD: 0.0155
--
BINDER: 11A06 (VHH, Class 2) VHH: EVQLVESGGGLVQPGESLRLSCKASGFSLDYYALGWFRQAPGKEREGISCITSSDASAYYTDSVKGRFTISRDNSKNTVYLQMNSLKTEDTAIYYCAAALLTCSSYYDAYTYWGQGTQVTVSS
OD, OD: 0.0455
--
BINDER: 24G10 (VHH, Class 3) VHH: EVQLVESGGGLVQAGGSLRLSCGAAGGTFSSYATGWFRQAPGKEREFVAVFRWSDSHTAYADSVKGRFTISRDGAKNTLYLQMSSLKPEDTAIYYCTTATRPGEWDYWGQGTQVTVSS
OD, OD: -0.0005
--
BINDER: 07B11 (VHH, Class 3) VHH: EVQLVESGGGLVQAGGSLRLSCVASGRAFSSYVMGWFRQAPGMEREFVALIRWSDGITGYVDSVKGRFTISRDNAKNTVYLQMNSLKPEDTAVYYCAAAVRPGDYDYWGQGTQVTVSS
OD, OD: -0.0005
--
BINDER: 16A04 (VHH, Class 3; also called IL17MS16A04) VHH: EVQLVESGGGLVQAGGSLRLSCAASGRTFSSYVVGWFRQAPGKEREFIGAISGSGDSIYYAVSEKDRFTISRDNGKNTLYLQMSSLKAEDTAVYYCTADQEFGYLRFGRSEYWGQGTQVTVSS
OD, OD: -0.0015
